Record: IC50 reported on Human cytomegalovirus DNA polymerase (Human cytomegalovirus).
Sequence (P08546 whole entry): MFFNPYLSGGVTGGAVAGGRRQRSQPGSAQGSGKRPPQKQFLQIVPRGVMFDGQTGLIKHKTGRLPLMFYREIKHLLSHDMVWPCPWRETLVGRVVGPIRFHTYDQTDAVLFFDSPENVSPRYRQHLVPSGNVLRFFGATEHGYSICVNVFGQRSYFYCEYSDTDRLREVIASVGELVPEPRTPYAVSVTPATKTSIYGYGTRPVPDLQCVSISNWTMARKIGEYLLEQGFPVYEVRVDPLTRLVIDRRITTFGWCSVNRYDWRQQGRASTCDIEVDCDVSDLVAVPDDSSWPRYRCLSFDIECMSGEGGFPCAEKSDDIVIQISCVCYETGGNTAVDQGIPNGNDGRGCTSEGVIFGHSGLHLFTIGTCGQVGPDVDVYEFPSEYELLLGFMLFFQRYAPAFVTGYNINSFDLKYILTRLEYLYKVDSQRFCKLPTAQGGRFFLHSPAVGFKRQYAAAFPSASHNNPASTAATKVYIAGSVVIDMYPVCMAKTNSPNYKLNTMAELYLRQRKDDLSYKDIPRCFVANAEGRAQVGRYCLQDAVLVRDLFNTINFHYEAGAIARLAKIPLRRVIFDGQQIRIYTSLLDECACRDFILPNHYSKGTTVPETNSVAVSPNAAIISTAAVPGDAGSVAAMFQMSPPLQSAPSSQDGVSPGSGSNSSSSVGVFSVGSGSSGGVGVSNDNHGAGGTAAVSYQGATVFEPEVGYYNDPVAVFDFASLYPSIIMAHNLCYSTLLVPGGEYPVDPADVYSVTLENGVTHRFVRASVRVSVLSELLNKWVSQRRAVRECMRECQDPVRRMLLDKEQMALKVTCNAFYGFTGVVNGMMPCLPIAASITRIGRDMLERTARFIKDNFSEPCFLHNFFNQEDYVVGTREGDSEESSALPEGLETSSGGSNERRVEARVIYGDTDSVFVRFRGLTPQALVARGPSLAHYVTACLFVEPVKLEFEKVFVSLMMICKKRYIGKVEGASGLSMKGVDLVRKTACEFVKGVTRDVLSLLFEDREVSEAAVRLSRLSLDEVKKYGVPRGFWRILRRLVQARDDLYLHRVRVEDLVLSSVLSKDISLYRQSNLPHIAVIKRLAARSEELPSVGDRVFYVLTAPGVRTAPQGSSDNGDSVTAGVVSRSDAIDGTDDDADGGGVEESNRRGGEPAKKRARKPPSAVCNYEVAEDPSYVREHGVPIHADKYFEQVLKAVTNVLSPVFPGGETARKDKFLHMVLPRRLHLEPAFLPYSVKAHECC
Kindly answer with a numeric value in µM, unit omitted.

Examples with answers:
compound	target	experimental_endpoint	unit	value_measured
COc1nc(N2CCC(c3ccc(C#N)cc3)C2=O)ccc1C[C@H]1COC(=O)N1 (stereo partly shown) [Compound 20]	Human cytomegalovirus DNA polymerase (Human cytomegalovirus)	IC50	µM	0.006
COc1nc(N2CCN(c3ccc(Cl)cc3)C2=O)ccc1C[C@H]1COC(=O)N1 [Compound 10]	Human cytomegalovirus DNA polymerase (Human cytomegalovirus)	IC50	µM	0.014
COc1nc(N2CCC(F)(c3ccc(C#N)cc3)C2=O)ccc1C[C@H]1COC(=O)N1 (single isomer, unassigned) [Compound 8]	Human cytomegalovirus DNA polymerase (Human cytomegalovirus)	IC50	µM	0.01

Input: Fill in IC50 for COc1nc(N2CCN(c3ccc(C#N)cc3)C2=O)ccc1C[C@H]1COC(=O)N1 [Compound 21] tested with Human cytomegalovirus DNA polymerase (Human cytomegalovirus).
Output: 0.029

* * *

test system: HSV-1 Strain F; experiment: Viral qPCR assay, HSV-1 (Example 14); assay type: cell-based; details: Human alphaherpesvirus 1, Vero, 72 h, Strain F in Vero or MRCS cells, 0.0005-0.004 pfu/cell, viral genome copy number by qPCR, read-out: HSV1 Cell EC50
pEC50: −log10 of the molar value.
Use 7 as the dividing line for pEC50, with the line itself on the True side and lower values as False.

compound	label_value
COc1nc(N2CCN(c3ccc(Cl)cc3)C2=O)ccc1C[C@H]1COC(=O)N1	False
COc1nc(NC(=O)Cc2ccc(C(F)(F)F)c(F)c2)ccc1C[C@H]1COC(=O)N1	False
COc1nc(NC(=O)Cc2ccc(C#N)cc2)ccc1C[C@H]1COC(=O)N1	False

Input: Decide: is the reported value of pEC50 for COc1nc(NC(=O)C2CCc3cc(C#N)ccc3O2)ccc1C[C@H]1COC(=O)N1 (some centres unmarked) equal to or greater than 7?
Output: True

Input: Decide: is the reported value of pEC50 for "COc1nc(N2CCN(c3ccc(C#N)cc3)C2=O)ccc1C[C@H]1COC(=O)N1" equal to or greater than 7?
Output: False

Input: Decide: is the reported value of pEC50 for "COc1nc(NC(=O)[C@@H]2Cc3ccc(C#N)cc3CN2C)ccc1C[C@H]1COC(=O)N1" equal to or greater than 7?
Output: False

* * *

molecular target: varicella zoster virus DNA polymerase (Varicella-zoster virus, UniProt P09252)
Sequence (P09252 whole entry): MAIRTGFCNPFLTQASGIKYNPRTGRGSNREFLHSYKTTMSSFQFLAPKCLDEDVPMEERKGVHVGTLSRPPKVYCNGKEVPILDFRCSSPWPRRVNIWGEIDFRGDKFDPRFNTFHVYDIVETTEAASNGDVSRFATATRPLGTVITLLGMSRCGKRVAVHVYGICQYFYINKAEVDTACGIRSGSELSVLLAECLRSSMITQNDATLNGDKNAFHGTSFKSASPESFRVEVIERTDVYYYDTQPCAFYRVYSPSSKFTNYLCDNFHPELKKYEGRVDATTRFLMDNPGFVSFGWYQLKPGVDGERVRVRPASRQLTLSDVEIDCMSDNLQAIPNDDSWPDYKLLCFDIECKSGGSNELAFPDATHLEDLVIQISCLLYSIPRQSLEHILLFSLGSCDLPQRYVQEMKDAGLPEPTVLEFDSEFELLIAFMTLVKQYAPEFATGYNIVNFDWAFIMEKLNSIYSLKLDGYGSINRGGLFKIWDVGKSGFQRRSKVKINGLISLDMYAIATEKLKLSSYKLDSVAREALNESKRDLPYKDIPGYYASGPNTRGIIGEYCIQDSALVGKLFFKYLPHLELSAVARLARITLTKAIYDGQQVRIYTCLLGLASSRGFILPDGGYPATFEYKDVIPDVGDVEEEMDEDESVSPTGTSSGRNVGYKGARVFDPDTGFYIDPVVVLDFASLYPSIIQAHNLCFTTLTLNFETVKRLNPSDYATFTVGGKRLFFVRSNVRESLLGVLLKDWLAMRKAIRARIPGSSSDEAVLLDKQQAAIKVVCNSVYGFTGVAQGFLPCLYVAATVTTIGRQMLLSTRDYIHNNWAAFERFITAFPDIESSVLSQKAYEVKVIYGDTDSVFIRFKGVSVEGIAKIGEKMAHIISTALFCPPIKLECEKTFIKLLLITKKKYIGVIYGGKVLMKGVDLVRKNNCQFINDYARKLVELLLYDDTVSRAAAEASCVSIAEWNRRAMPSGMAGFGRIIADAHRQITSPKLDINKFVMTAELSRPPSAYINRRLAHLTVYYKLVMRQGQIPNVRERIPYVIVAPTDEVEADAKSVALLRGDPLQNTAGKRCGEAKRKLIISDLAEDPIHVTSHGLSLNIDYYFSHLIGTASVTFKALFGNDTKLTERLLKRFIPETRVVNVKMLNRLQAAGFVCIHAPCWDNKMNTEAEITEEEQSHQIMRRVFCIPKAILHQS
# pIC50 values compiled below
pIC50 here: minus log base 10 of the concentration, concentration in moles per litre.

Examples with answers:
molecule	pIC50
COc1nc(NC(=O)Cc2ccc(C#N)cc2)ccc1C[C@H]1COC(=O)N1	8.10
COc1nc(N2CCC(F)(c3ccc(C#N)cc3)C2=O)ccc1C[C@H]1COC(=O)N1 (single isomer, unassigned)	7.47
COCc1cc(C#N)ccc1CC(=O)Nc1ccc(C[C@H]2COC(=O)N2)c(OC)n1	8.10

Input: Give me measured pIC50, please, for this molecule: COc1nc(NC(=O)C2CCc3cc(Cl)ccc3O2)ccc1C[C@H]1COC(=O)N1 (stereo partly shown)
Output: 9.00

Input: Give me measured pIC50, please, for this molecule: "COc1nc(NC(=O)Cc2ccc(C#N)cc2F)ccc1C[C@H]1COC(=O)N1"
Output: 8.10

Input: Give me measured pIC50, please, for this molecule: COc1nc(NC(=O)C2CCc3cc(C#N)ccc32)ccc1C[C@H]1COC(=O)N1 (stereo partly shown)
Output: 8.15

Input: Give me measured pIC50, please, for this molecule: COc1nc(N2CCC(c3ccc(C#N)cc3)C2=O)ccc1C[C@H]1COC(=O)N1 (stereo partly shown)
Output: 8.30

Input: Give me measured pIC50, please, for this molecule: "COCc1cc(Cl)ccc1CC(=O)Nc1ccc(C[C@H]2COC(=O)N2)c(OC)n1"
Output: 7.74

Input: Give me measured pIC50, please, for this molecule: COc1nc(NC(=O)C2CCc3cc(C#N)ccc3O2)ccc1C[C@H]1COC(=O)N1 (stereo partly shown)
Output: 9.40

Input: Give me measured pIC50, please, for this molecule: "COc1nc(NC(=O)N2Cc3ccc(Cl)cc3C2)ccc1C[C@H]1COC(=O)N1"
Output: 5.32
